Catalogue of compounds with associated Ki
- assay_system: DLK kinase (N-terminally GST-tagged DLK, catalytic domain amino acid 1-520) (Homo sapiens (Human), UniProt Q12852)
- Sequence (Q12852 1-520): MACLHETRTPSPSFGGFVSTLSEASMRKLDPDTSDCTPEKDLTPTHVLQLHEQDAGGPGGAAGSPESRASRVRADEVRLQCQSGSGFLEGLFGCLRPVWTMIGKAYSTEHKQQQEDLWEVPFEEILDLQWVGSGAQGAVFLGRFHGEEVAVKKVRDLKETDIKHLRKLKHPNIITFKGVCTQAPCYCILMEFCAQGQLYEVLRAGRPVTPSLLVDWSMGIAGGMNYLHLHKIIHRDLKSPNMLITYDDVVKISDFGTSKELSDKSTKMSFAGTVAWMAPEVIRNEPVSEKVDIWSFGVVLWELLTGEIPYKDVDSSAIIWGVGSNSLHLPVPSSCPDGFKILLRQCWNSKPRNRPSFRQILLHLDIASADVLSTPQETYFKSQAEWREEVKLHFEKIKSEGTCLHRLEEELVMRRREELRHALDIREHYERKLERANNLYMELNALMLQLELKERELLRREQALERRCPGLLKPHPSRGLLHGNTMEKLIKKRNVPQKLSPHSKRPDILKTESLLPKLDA
- method_summary: DLK TR-FRET assay
- test_parameters: 30 μM ATP, MKK4 K131M substrate, read-out: DLK HTRF (Ki)
measurement_label: Ki (µM)

                                   compound  value_units  recorded_result
0  FC(F)(F)c1ccnc(Nc2cc(C3CCCN(C4COC4)C3)nc(C3CCC3)n2)c1 (stereo not drawn)           µM            0.026
1  FC1(F)CCN(c2nc(Nc3cc(C(F)(F)F)ccn3)cc(C3CCN(Cc4cn[nH]c4)C3)n2)C1 (stereo not drawn)           µM          0.00492
2  C[C@@H]1CCCN1c1nc(Nc2cc(C(F)(F)F)ccn2)cc(C2CN(S(C)(=O)=O)C2)n1           µM           0.0306
3  O=C(C1CCCO1)N1CCC(c2cc(Nc3cc(C(F)(F)F)ccn3)nc(N3CC(F)(F)C3)n2)C1 (stereo not drawn)           µM            0.159
4  Cc1ccnc(Nc2cc(C3CCCN(Cc4cc(C)nn4C)C3)nc(C)n2)c1 (stereo not drawn)           µM            0.392
5  CC(C)(C)c1ccnc(Nc2cc(C3CCNCC3)nc(N3CCC(F)(F)C3)n2)c1           µM          0.00834
